Provide the recorded pEC50 for the entries that follow.
System name: phosphorylation levels of ERK1/2 in AsPC-1 (homozygous KRAS-G12D) cells (Homo sapiens, UniProt P01116, G12D)
Sequence (P01116 1-186 G12D): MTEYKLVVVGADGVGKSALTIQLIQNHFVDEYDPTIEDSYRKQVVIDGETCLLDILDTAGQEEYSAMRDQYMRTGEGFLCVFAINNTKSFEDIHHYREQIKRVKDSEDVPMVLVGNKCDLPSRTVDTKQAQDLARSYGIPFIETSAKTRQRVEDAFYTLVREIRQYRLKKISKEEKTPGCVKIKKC
Assay notes: Cellular phospho-ERK assay in AsPC-1 cells (Alpha Screen), assay medium without fetal bovine serum
Experimental conditions: phospho-ERK AlphaScreen, 18 h
*1 amine or outer side, *2 acyl side, *3 side chain or, on linkers, in order; H or OH if unused. Where a SMILES comes first, the peptide text is derived from it. [ ]: non-standard residue; d: D form. Ala(pyrimidin-5-yl) = N[C@@H](Cc1cncnc1)C(=O)O; X45 = CN([C@@H](Cc1ccncc1F)C(=O)[*:2])[*:1]; NMeAha = CN[C@@H](CCN=[N+]=[N-])C(=O)O; X2 = O=C([C@H](Cc1ccccc1F)O[*:1])[*:2]; Phe(2-F) = N[C@@H](Cc1ccccc1F)C(=O)O; X31 = O=C([C@H](CCC1CC1)N[*:1])[*:2]; NMe3Pal = CN[C@@H](Cc1cccnc1)C(=O)O; X1 = O=C(C12CC(CN[*:1])(C1)C2)[*:2]; Ala(cPr) = N[C@@H](CC1CC1)C(=O)O; NMeF = CN[C@@H](Cc1ccccc1)C(=O)O; PhLac = O=C(O)[C@@H](O)Cc1ccccc1; 3Pal = N[C@@H](Cc1cccnc1)C(=O)O; Cba = N[C@@H](CC1CCC1)C(=O)O; hLeu = CC(C)CC[C@H](N)C(=O)O; NMeA = CN[C@@H](C)C(=O)O; Nle = CCCC[C@H](N)C(=O)O
Answers are plain numbers, as −log10 of the molar value.

C[C@H]1C(=O)N[C@@H](Cc2cncnc2)C(=O)N[C@@H](CC2CCC2)C(=O)N[C@@H](Cc2ccccc2F)C(=O)N[C@@H](CCC2CC2)C(=O)N(C)[C@@H](Cc2ccccc2)C(=O)NCC23CC(C2)(C3)C(=O)O[C@@H](Cc2ccccc2)C(=O)N1C [compound 115] (cyclo([Cba][Phe(2-F)][X31][NMeF][X1][PhLac][NMeA][Ala(pyrimidin-5-yl)])): 6.36
CCCC[C@@H]1NC(=O)[C@H](Cc2cccnc2)NC(=O)[C@H](CCN=[N+]=[N-])N(C)C(=O)[C@H](Cc2ccccc2)OC(=O)C23CC(CNC(=O)[C@H](Cc4cccnc4)N(C)C(=O)[C@H](CCCC)NC(=O)[C@H](Cc4ccccc4F)OC1=O)(C2)C3 [compound 238] (cyclo([3Pal][Nle][X2][Nle][NMe3Pal][X1][PhLac][NMeAha])): 5.46

Kindly review the next compound as well.
Qu. Given the compound CC(C)CC[C@@H]1NC(=O)[C@H](Cc2ccccc2F)NC(=O)[C@H](CC2CC2)NC(=O)[C@H](Cc2cncnc2)NC(=O)[C@H](C)N(C)C(=O)[C@H](Cc2ccccc2)OC(=O)C23CC(CNC(=O)[C@H](Cc4ccncc4F)N(C)C1=O)(C2)C3 [compound 337] (cyclo([Ala(cPr)][Phe(2-F)][hLeu][X45][X1][PhLac][NMeA][Ala(pyrimidin-5-yl)])) , write its reported pEC50.
Ans. 5.47

----------
System name: phosphorylation levels of ERK1/2 in AsPC-1 (homozygous KRAS-G12D) cells (Homo sapiens, UniProt P01116, G12D)
Assay notes: Cellular phospho-ERK assay in AsPC-1 cells (Alpha Screen), assay medium without fetal bovine serum
Experimental conditions: phospho-ERK AlphaScreen, 18 h
*1 amine or outer side, *2 acyl side, *3 side chain or, on linkers, in order; H or OH if unused. Where a SMILES comes first, the peptide text is derived from it. [ ]: non-standard residue; d: D form. NMeNva(5-imidazol-1-yl) = CN[C@@H](CCCn1ccnc1)C(=O)O; Ala(pyrimidin-5-yl) = N[C@@H](Cc1cncnc1)C(=O)O; NMeNva(5,5-F2) = CN[C@@H](CCC(F)F)C(=O)O; X2 = O=C([C@H](Cc1ccccc1F)O[*:1])[*:2]; Phe(2-F) = N[C@@H](Cc1ccccc1F)C(=O)O; NMe3Pal = CN[C@@H](Cc1cccnc1)C(=O)O; X1 = O=C(C12CC(CN[*:1])(C1)C2)[*:2]; Ala(cPr) = N[C@@H](CC1CC1)C(=O)O; NMeF = CN[C@@H](Cc1ccccc1)C(=O)O; PhLac = O=C(O)[C@@H](O)Cc1ccccc1; hLeu = CC(C)CC[C@H](N)C(=O)O; Nle = CCCC[C@H](N)C(=O)O
Experimental endpoint: EC50

Example entries and their recorded answers appear below.
CCCC[C@@H]1NC(=O)[C@H](Cc2cncnc2)NC(=O)[C@H](CCCn2ccnc2)N(C)C(=O)[C@H](Cc2ccccc2)OC(=O)C23CC(CNC(=O)[C@H](Cc4cccnc4)N(C)C(=O)[C@H](CCCC)NC(=O)[C@H](Cc4ccccc4F)OC1=O)(C2)C3 [compound 246] (cyclo([NMe3Pal][X1][PhLac][NMeNva(5-imidazol-1-yl)][Ala(pyrimidin-5-yl)][Nle][X2][Nle])): > 50.8 µM
CC(C)CC[C@@H]1NC(=O)[C@H](Cc2ccccc2F)NC(=O)[C@H](CC2CC2)NC(=O)[C@H](Cc2cncnc2)NC(=O)[C@H](CCC(F)F)N(C)C(=O)[C@H](Cc2ccccc2)OC(=O)C23CC(CNC(=O)[C@H](Cc4ccccc4)N(C)C1=O)(C2)C3 [compound 217] (cyclo([Ala(cPr)][Phe(2-F)][hLeu][NMeF][X1][PhLac][NMeNva(5,5-F2)][Ala(pyrimidin-5-yl)])): 1.77 µM

Kindly review the next compound as well.
Qu. Given the compound CCCCC[C@@H]1NC(=O)[C@H](Cc2ccc(OC)cc2)NC(=O)[C@H](CC2CCC2)NC(=O)[C@H](Cc2ccoc2)NC(=O)[C@H](CCCNC(=N)N)NC(=O)[C@H](Cc2ccccc2)NC(=O)CSC[C@@](C)(C(N)=O)NC(=O)[C@H](Cc2ccccc2)N(C)C1=O [compound 371] , write its reported EC50.
Ans. > 50.8 µM

----------
System name: phosphorylation levels of ERK1/2 in AsPC-1 (homozygous KRAS-G12D) cells (Homo sapiens, UniProt P01116, G12D)
Assay notes: Cellular phospho-ERK assay in AsPC-1 cells (Alpha Screen), assay medium without fetal bovine serum
Experimental conditions: phospho-ERK AlphaScreen, 18 h
*1 amine or outer side, *2 acyl side, *3 side chain or, on linkers, in order; H or OH if unused. Where a SMILES comes first, the peptide text is derived from it. [ ]: non-standard residue; d: D form. NMe3Pal(5-F) = CN[C@@H](Cc1cncc(F)c1)C(=O)O; Phe(2-F) = N[C@@H](Cc1ccccc1F)C(=O)O; X1 = O=C(C12CC(CN[*:1])(C1)C2)[*:2]; Ala(cPr) = N[C@@H](CC1CC1)C(=O)O; PhLac = O=C(O)[C@@H](O)Cc1ccccc1; 3Pal = N[C@@H](Cc1cccnc1)C(=O)O; hLeu = CC(C)CC[C@H](N)C(=O)O; NMeA = CN[C@@H](C)C(=O)O
Experimental endpoint: EC50 (nM)
Answers are plain numbers, in nM.

Qu. Given the molecule CC(C)CC[C@@H]1NC(=O)[C@H](Cc2ccccc2F)NC(=O)[C@H](CC2CC2)NC(=O)[C@H](Cc2cccnc2)NC(=O)[C@H](C)N(C)C(=O)[C@H](Cc2ccccc2)OC(=O)C23CC(CNC(=O)[C@H](Cc4cncc(F)c4)N(C)C1=O)(C2)C3 [compound 283] (cyclo([3Pal][Ala(cPr)][Phe(2-F)][hLeu][NMe3Pal(5-F)][X1][PhLac][NMeA])) , write its reported EC50.
Ans. 1270

----------
System name: phosphorylation levels of ERK1/2 in AsPC-1 (homozygous KRAS-G12D) cells (Homo sapiens, UniProt P01116, G12D)
Assay notes: Cellular phospho-ERK assay in AsPC-1 cells (Alpha Screen), assay medium without fetal bovine serum;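 further: signal taken as phospho-ERK over total ERK per well, both detected in one multiplex bead assay, EC50 from four-parameter logistic fit of dose-response curves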
Experimental conditions: phospho-ERK AlphaScreen, 18 h
*1 amine or outer side, *2 acyl side, *3 side chain or, on linkers, in order; H or OH if unused. Where a SMILES comes first, the peptide text is derived from it. Bridges are numbered along the chain shown (N, C = ends). [ ]: non-standard residue; d: D form. Ala(pyrimidin-5-yl) = N[C@@H](Cc1cncnc1)C(=O)O; Nle(5,5-F2) = CC(F)(F)CC[C@H](N)C(=O)O; Phe(2-CN) = N#Cc1ccccc1C[C@H](N)C(=O)O; Phe(2-F) = N[C@@H](Cc1ccccc1F)C(=O)O; X1 = O=C(C12CC(CN[*:1])(C1)C2)[*:2]; NMeF = CN[C@@H](Cc1ccccc1)C(=O)O; PhLac = O=C(O)[C@@H](O)Cc1ccccc1; 3Pal = N[C@@H](Cc1cccnc1)C(=O)O; Ahp(2) = CCCCC[C@H](N)C(=O)O; Cba = N[C@@H](CC1CCC1)C(=O)O; αMeC = C[C@](N)(CS)C(=O)O; NMeA = CN[C@@H](C)C(=O)O
Experimental endpoint: EC50

Example entries and their recorded answers appear below.
C[C@H]1C(=O)N[C@@H](Cc2cncnc2)C(=O)N[C@@H](CCC(C)(F)F)C(=O)N[C@@H](Cc2ccccc2F)C(=O)N[C@@H](CCC(C)(F)F)C(=O)N(C)[C@@H](Cc2ccccc2)C(=O)NCC23CC(C2)(C3)C(=O)O[C@@H](Cc2ccccc2)C(=O)N1C [compound 288] (cyclo([NMeA][Ala(pyrimidin-5-yl)][Nle(5,5-F2)][Phe(2-F)][Nle(5,5-F2)][NMeF][X1][PhLac])): 6.61 µM
CCCCC[C@@H]1NC(=O)[C@H](Cc2ccccc2C#N)NC(=O)[C@H](CC2CCC2)NC(=O)[C@H](Cc2cccnc2)NC(=O)[C@H](CCCNC(=N)N)NC(=O)[C@H](Cc2ccccc2)NC(=O)CSC[C@@](C)(C(N)=O)NC(=O)[C@H](Cc2ccccc2)N(C)C1=O [compound 375] ({CH2CO}-FR[3Pal][Cba][Phe(2-CN)][Ahp(2)][NMeF][αMeC]-NH2; thioether N-8): > 50.8 µM

Kindly review the next compound as well.
Qu. Given the compound CCCCC[C@@H]1NC(=O)[C@H](Cc2ccc(OC)cc2)NC(=O)[C@H](CC2CCC2)NC(=O)[C@H](Cc2ccc(N(C)C(=N)NC)cc2)NC(=O)[C@H](CCCNC(=N)N)NC(=O)[C@H](Cc2ccccc2)NC(=O)CSC[C@@](C)(C(N)=O)NC(=O)[C@H](Cc2ccccc2)N(C)C1=O [compound 382] , write its reported EC50.
Ans. > 50.8 µM
